meta.source: patent US7741354B2

molecular target: hQC (Homo sapiens); test: Fluorometric (fluorescent) assay of hQC inhibition, IC50; assay type: biochemical; settings: read-out: IC50
Classes by IC50: low interval (below 3 µM), middle interval (3 µM to below 5 µM), high interval (5 µM or more)

Example cases with answers are listed next.
>  <Molecule>
COCCn1nnnc1C(NCCCn1ccnc1)c1ccc2ccccc2n1 (stereo not drawn)

>  <Class Assignment>
high interval

$$$$
>  <Molecule>
Fc1ccc2c(C(Nc3ccc4[nH]cnc4c3)c3nnnn3C3CCCCC3)c[nH]c2c1 (stereo not drawn)

>  <Class Assignment>
middle interval

$$$$
>  <Molecule>
Oc1cccc2ccc(C(NCCCn3ccnc3)c3nnnn3C[C@@H]3CCCO3)nc12 (stereo partly drawn)

>  <Class Assignment>
low interval

$$$$
>  <Molecule>
CN(C)CCn1nnnc1C(NCCCn1ccnc1)C1CCC=CO1 (stereo not drawn)

>  <Class Assignment>
low interval

$$$$
>  <Molecule>
C=CCn1nnnc1C(NCCCn1ccnc1)c1cc(C)c(C)cc1C (stereo not drawn)

>  <Class Assignment>
high interval

$$$$
>  <Molecule>
CC(C)(C)Cn1nnnc1C(NCCCn1ccnc1)c1ccc2cccc(O)c2n1 (stereo not drawn)

>  <Class Assignment>
low interval

$$$$
>  <Molecule>
CC(Cc1ccc2c(c1)OCO2)C(Nc1ccc2[nH]cnc2c1)c1nnnn1Cc1ccccc1Cl (stereo not drawn)

>  <Class Assignment>
middle interval

$$$$
>  <Molecule>
Cc1ccc(O)c(C(NCCCn2ccnc2)c2nnnn2Cc2ccc(Cl)cc2)c1 (stereo not drawn)

>  <Class Assignment>
low interval

$$$$

[ask] Entry CC(C)(C)OC(=O)Cn1nnnc1C(Nc1ccc2[nH]cnc2c1)c1ccc(Cl)c(F)c1 (stereo not drawn) belongs to which category?
[reply] middle interval

[ask] Entry COCCCn1nnnc1C(NCCCn1ccnc1)c1ccc2cccc(O)c2n1 (stereo not drawn) belongs to which category?
[reply] low interval

---

IC50 reference
molecular target: hQC (Homo sapiens, UniProt Q16769); assay: Fluorometric (fluorescent) assay of hQC inhibition, IC50; format: biochemical; conditions: hQC inhibition; read-out: IC50
Sequence (Q16769 29-361): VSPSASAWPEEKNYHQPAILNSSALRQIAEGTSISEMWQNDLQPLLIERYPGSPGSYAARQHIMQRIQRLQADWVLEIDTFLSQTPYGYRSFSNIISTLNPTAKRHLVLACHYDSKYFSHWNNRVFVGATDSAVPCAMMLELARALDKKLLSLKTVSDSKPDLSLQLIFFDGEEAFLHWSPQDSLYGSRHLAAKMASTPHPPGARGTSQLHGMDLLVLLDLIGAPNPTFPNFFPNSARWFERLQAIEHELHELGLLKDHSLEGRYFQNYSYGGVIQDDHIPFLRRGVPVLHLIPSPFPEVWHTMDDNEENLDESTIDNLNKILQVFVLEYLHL
Give just the numeric value; µM need not be written.

>  <Compound>
Oc1ccc(C(Nc2ccc3[nH]cnc3c2)c2nnnn2Cc2ccc(Cl)cc2)cc1 (centres unmarked)

>  <Measurement Unit>
µM

>  <IC50>
3.1

$$$$
>  <Compound>
Brc1cc(Br)cc(C(Nc2ccc3[nH]cnc3c2)c2nnnn2CCC(c2ccccc2)c2ccccc2)c1 (centres unmarked)

>  <Measurement Unit>
µM

>  <IC50>
4

$$$$
>  <Compound>
O=[N+]([O-])c1cc(C(Nc2ccc3[nH]cnc3c2)c2nnnn2Cc2ccc(Cl)cc2)ccc1Cl (centres unmarked)

>  <Measurement Unit>
µM

>  <IC50>
2.2

$$$$

[ask] Respond only with IC50 recorded for OCc1ccc(C(Nc2ccc3[nH]cnc3c2)c2nnnn2-c2ccccc2OCc2ccccc2)o1 (centres unmarked)
[reply] 4.9

[ask] Respond only with IC50 recorded for Brc1cc(Br)cc(C(Nc2ccc3[nH]cnc3c2)c2nnnn2CC2CCCO2)c1 (centres unmarked)
[reply] 4.9

[ask] Respond only with IC50 recorded for O=[N+]([O-])c1cc(C(Nc2ccc3[nH]cnc3c2)c2nnnn2CC2CCCO2)ccc1Cl (centres unmarked)
[reply] 3.1

[ask] Respond only with IC50 recorded for CCc1ccc(C(Nc2ccc3[nH]cnc3c2)c2nnnn2C2CCCCC2)cc1 (centres unmarked)
[reply] 4.9

[ask] Respond only with IC50 recorded for COc1ccccc1C(Nc1ccc2[nH]cnc2c1)c1nnnn1Cc1ccccc1 (centres unmarked)
[reply] 5.8

---

target: hQC (Homo sapiens); experiment: Fluorometric (fluorescent) assay of hQC inhibition, IC50; type: biochemical; settings: read-out: IC50
Classes by IC50: low: < 5 µM; mid: ≥ 5 µM and < 7 µM; high: ≥ 7 µM

Example cases with answers are listed next.
>  <Molecule>
Clc1ccc(Cn2nnnc2C(NCCCn2ccnc2)c2ccc3[nH]ccc3c2)cc1 (stereo not drawn)

>  <Class Assignment>
low

$$$$
>  <Molecule>
C1=CO[C@H](C(NCCCn2ccnc2)c2nnnn2C2CC2)CC1 (stereo partly drawn)

>  <Class Assignment>
high

$$$$
>  <Molecule>
Clc1ccccc1Cn1nnnc1C(Nc1ccc2[nH]cnc2c1)c1cc2ccccc2o1 (stereo not drawn)

>  <Class Assignment>
high

$$$$
>  <Molecule>
CCCCn1nnnc1C(NCCCn1ccnc1)c1ccc2[nH]ccc2c1 (stereo not drawn)

>  <Class Assignment>
mid

$$$$
>  <Molecule>
c1ccc2c(C(Nc3ccc4[nH]cnc4c3)c3nnnn3CC3CCCO3)csc2c1 (stereo not drawn)

>  <Class Assignment>
low

$$$$

[ask] Entry c1ccc(CC(Nc2ccc3[nH]cnc3c2)c2nnnn2Cc2cccnc2)cc1 (stereo not drawn) belongs to which category?
[reply] mid

[ask] Entry COCCn1nnnc1C(NCCCn1ccnc1)c1ccc2cccc(O)c2n1 (stereo not drawn) belongs to which category?
[reply] low

[ask] Entry CC(CC(Nc1ccc2[nH]cnc2c1)c1nnnn1C(C)(C)C)c1ccccc1 (stereo not drawn) belongs to which category?
[reply] mid

[ask] Entry Clc1ccc(Cn2nnnc2C(NCCCn2ccnc2)c2ccc(Cl)c(Cl)c2)cc1 (stereo not drawn) belongs to which category?
[reply] low

[ask] Entry c1ccc(C(c2ccccc2)n2nnnc2C(Nc2ccc3[nH]cnc3c2)c2ccc3nsnc3c2)cc1 (stereo not drawn) belongs to which category?
[reply] mid

[ask] Entry COC(=O)Cn1nnnc1C(NCCCn1ccnc1)c1ccc2[nH]ccc2c1 (stereo not drawn) belongs to which category?
[reply] mid

---

molecular target: UniProt:Q16769; experiment: Fluorometric (fluorescent) assay of hQC inhibition, IC50; assay type: biochemical; conditions: hQC inhibition; read-out: IC50
Endpoint Name: IC50 (µM)
Give just the numeric value; µM need not be written.

>  <Molecule>
Brc1cc(Br)cc(C(Nc2ccc3[nH]cnc3c2)c2nnnn2CCCCc2ccccc2)c1 (centres unmarked) [compound 189]

>  <Observed Measurement>
3.1

$$$$

[ask] Respond only with IC50 recorded for CCOC(=O)C1CCCCC1n1nnnc1C(Nc1ccc2[nH]cnc2c1)c1cc(Cl)ccc1O (centres unmarked) [compound 169]
[reply] 7.6

[ask] Respond only with IC50 recorded for c1nc2cc(NC(c3ccc4c(c3)OCO4)c3nnnn3CC3CCCO3)ccc2[nH]1 (centres unmarked) [compound 118]
[reply] 6.7

[ask] Respond only with IC50 recorded for COc1ccc(C(Nc2ccc3[nH]cnc3c2)c2nnnn2CC(=O)OC(C)(C)C)cc1 (centres unmarked) [compound 172]
[reply] 4

[ask] Respond only with IC50 recorded for C/C=C/C=C/C(Nc1ccc2[nH]cnc2c1)c1nnnn1Cc1cccnc1 (centres unmarked) [compound 173]
[reply] 8.5

[ask] Respond only with IC50 recorded for CCOC(=O)C1CCCCC1n1nnnc1C(Nc1ccc2[nH]cnc2c1)c1ccc(OC)cc1 (centres unmarked) [compound 184]
[reply] 5.8

[ask] Respond only with IC50 recorded for O=C1CCCN1CCCn1nnnc1C(Nc1ccc2[nH]cnc2c1)c1ccc(Br)cc1 (centres unmarked) [compound 194]
[reply] 8.5

[ask] Respond only with IC50 recorded for CC1(C)OCC(Cn2nnnc2C(Nc2ccc3[nH]cnc3c2)c2ccc3c(c2)OCO3)O1 (centres unmarked) [compound 138]
[reply] 9.4

---

biological target: UniProtKB Q16769; assay: Fluorometric (fluorescent) assay of hQC inhibition, IC50; format: biochemical; details: read-out: IC50
Endpoint Name: IC50

Examples from the recorded data:
>  <Molecule>
Clc1ccc(C(NCCCn2ccnc2)c2nnnn2C[C@@H]2CCCO2)cc1Cl (stereo partly shown)

>  <Endpoint Name>
IC50

>  <Observed Measurement>
4 µM

$$$$
>  <Molecule>
Cc1ccc2occ(C(Nc3ccc4[nH]cnc4c3)c3nnnn3CC3CCCO3)c(=O)c2c1 (stereo not shown)

>  <Endpoint Name>
IC50

>  <Observed Measurement>
9.4 µM

$$$$
>  <Molecule>
COCCn1nnnc1C(NCCCn1ccnc1)c1cc(C)c(C)cc1C (stereo not shown)

>  <Endpoint Name>
IC50

>  <Observed Measurement>
7.6 µM

$$$$
>  <Molecule>
COC(=O)Cn1nnnc1C(NCCCn1ccnc1)c1cc(C)ccc1O (stereo not shown)

>  <Endpoint Name>
IC50

>  <Observed Measurement>
2.2 µM

$$$$
>  <Molecule>
Cn1nnnc1C(NCCCn1ccnc1)c1ccc2cccc(O)c2n1 (stereo not shown)

>  <Endpoint Name>
IC50

>  <Observed Measurement>
3.1 µM

$$$$
>  <Molecule>
COc1cccc(C(Nc2ccc3[nH]cnc3c2)c2nnnn2CC2CCCO2)c1 (stereo not shown)

>  <Endpoint Name>
IC50

>  <Observed Measurement>
7.6 µM

$$$$
>  <Molecule>
COC(=O)Cn1nnnc1C(NCCCn1ccnc1)[C@@H]1CCC=CO1 (stereo partly shown)

>  <Endpoint Name>
IC50

>  <Observed Measurement>
4.9 µM

$$$$
>  <Molecule>
N#Cc1cc(C(NCCCn2ccnc2)c2nnnn2Cc2ccc(Cl)cc2)ccc1F (stereo not shown)

>  <Endpoint Name>
IC50

>  <Observed Measurement>
6.7 µM

$$$$

[ask] Respond only with IC50 recorded for CSCCC(Nc1ccc2[nH]cnc2c1)c1nnnn1C(c1ccccc1)c1ccccc1 (stereo not shown)
[reply] 4.9 µM
